All figures here come from the OligoGym collection.

Target: MCM6
Test: pooled miR-30 sensor sort-seq; sequence = guide strand; also: reference of the scale not given here
Conditions: shRNA
value.type: sensor-assay potency score (higher = more potent)
Just the number.

Given the entry ATGAATAGCAACTTGATCCCGC , report its measured sensor-assay potency score (higher = more potent).
0.187

# lookup: sensor-assay potency score (higher = more potent) of TTGATTTATTCAGTAACCGGAA
-0.345

Would you kindly share the measured sensor-assay potency score (higher = more potent) for TTGATCTAGATTGACATCAGGT ?
0.643

Fill in: sensor-assay potency score (higher = more potent) of TTGATTTATGTCTTCATTGTAG is ___
-0.457

Record request: sensor-assay potency score (higher = more potent) value, item TAGATTTTTATCTTGACTCATC
-0.898

Looking for the measured sensor-assay potency score (higher = more potent) of TAAAGTCACACTTGTCACCAGC , can you help?
-0.442

Endpoint output: sensor-assay potency score (higher = more potent) of TAGAACATGATCATAGTGTGTG . Value?
0.881

Item TTACACATGAAAACAAAGGTAT has what recorded sensor-assay potency score (higher = more potent)?
-0.0386

* * *

Molecular target: TTC7A
Test: pooled miR-30 sensor sort-seq; sequence = guide strand
Conditions: shRNA
What sensor-assay potency score (higher = more potent) was measured for each of the following?

Any idea what sensor-assay potency score (higher = more potent) came out for TCTCCTTCAAACACTGCTCCAG on TTC7A?
-0.633

For TTC7A, provide sensor-assay potency score (higher = more potent) of TTTGATGACAAAAGCCTCCGAC please.
-0.154

Requested read-out sensor-assay potency score (higher = more potent), target or system TTC7A, entry TTTGGCTTCGCTCATCTTCGGC
-0.912

Any idea what sensor-assay potency score (higher = more potent) came out for TGGCACTGGAGATCTGTCGGAC on TTC7A?
-0.75

* * *

Provide the recorded sensor-assay potency score (higher = more potent) for the entries that follow.
Biological target: ATP6V0A1
Assay: pooled miR-30 sensor sort-seq; sequence = guide strand
Settings: shRNA

Using the record for TTTCTTCACATCTTCTAACTTC , report its sensor-assay potency score (higher = more potent).
-0.0928

sensor-assay potency score (higher = more potent) for TTTTAATTCGGTCAGTTCCAGG ?
-1.24

Quick one: sensor-assay potency score (higher = more potent) for TTATAAGTAAACATCGGCCGTA ?
-0.196

Which measured sensor-assay potency score (higher = more potent) value corresponds to TTGGAAAACATTCACATCTGGA ?
0.211

Would you mind telling me what sensor-assay potency score (higher = more potent) value was observed for TTCCGCACTTTGATGAACCAGA ?
-0.516

Quick one: sensor-assay potency score (higher = more potent) for TCTCTTTCTCAACAAATCGAAG ?
-1.57

Consider the sequence shown here: TAAGCATCTACTATGTTCTGAA What is its recorded sensor-assay potency score (higher = more potent)?
0.161

Requested read-out: sensor-assay potency score (higher = more potent). Entry: TTTATTGGTAGCAATGTTCCAA
0.458

* * *

Biological target: SORCS2
Assay: pooled miR-30 sensor sort-seq; sequence = guide strand
Details: shRNA
Our labelling divides records by sensor-assay potency score (higher = more potent) into ranges: low: < -0.8; medium: ≥ -0.8 and < -0.4; high: ≥ -0.4

// return the class label for TAGAAATTGTCGATGACGGTGG
high

Category of TTGAGGACAACTTGTAGGGTGG , please.
medium

Into which category would you place TTTGGTCACTCGCTCTTGCAGA ?
medium

Place this sequence in its band: AAAGAAGATGTAATCGTCCTGC
high

Class label required: TATTCCTATAGACTTACACTAA
medium

Please indicate the class for TTTCCTTTTGAACTTGTAGAGG based on its sensor-assay potency score (higher = more potent).
low

For this sequence, which bin applies? TTCTTCTTTATATTCCACCAGC
low

Classify this sequence: TAGAGCTTGCTCTCCTTTGTGT
high

Which sensor-assay potency score (higher = more potent) band matches TTACTCAACAAGGAGCGGGTGC ?
medium

Looking at TTCTTTATATTCCACCAGCTGT , which class would you pick?
low
